Biological target: T1, OTULIN (OTU deubiquitinase with linear linkage specificity, FAM105B), His-tagged, biotin-labelled (human, UniProt Q96BN8 1-352, biotin (label; sites not stated))
T1 construct: OTULIN (FAM105B), cDNA in pET28a; also called HIS-OTULIN; source: E. coli BL21 (DE3), purified (His-tag Purification Resin), labelled with biotin; not shown: His6, N-terminal, kept
Experiment: peptide or protein array; HuProt human proteome microarray; 5 ug/5 ml biotin-labelled LUBAC or OTULIN in solution, 1 h at room temperature; Cy5-streptavidin, scanned at 635 nm; BSA as negative control; hits: Z-score >= 3 and I_(Mean_Ratio) >= 1.4
Details: both partners purified
READOUT: binding result

CSRP3 (natural protein, human, UniProt P50461 1-194, looked up, CSRP3; protein on the human proteome microarray; source: spotted on the HuProt human proteome microarray) MPNWGGGAKCGACEKTVYHAEEIQCNGRSFHKTCFHCMACRKALDSTTVAAHESEIYCKVCYGRRYGPKGIGYGQGAGCLSTDTGEHLGLQFQQSPKPARSVTTSNPSKFTAKFGESEKCPRCGKSVYAAEKVMGGGKPWHKTCFRCAICGKSLESTNVTDKDGELYCKVCYAKNFGPTGIGFGGLTQQVEKKE : binds
MAGEB1 (natural protein, human, UniProt P43366 1-347, looked up, MAGEB1; protein on the human proteome microarray; source: spotted on the HuProt human proteome microarray) MPRGQKSKLRAREKRRKAREETQGLKVAHATAAEKEECPSSSPVLGDTPTSSPAAGIPQKPQGAPPTTTAAAAVSCTESDEGAKCQGEENASFSQATTSTESSVKDPVAWEAGMLMHFILRKYKMREPIMKADMLKVVDEKYKDHFTEILNGASRRLELVFGLDLKEDNPSGHTYTLVSKLNLTNDGNLSNDWDFPRNGLLMPLLGVIFLKGNSATEEEIWKFMNVLGAYDGEEHLIYGEPRKFITQDLVQEKYLKYEQVPNSDPPRYQFLWGPRAYAETTKMKVLEFLAKMNGATPRDFPSHYEEALRDEEERAQVRSSVRARRRTTATTFRARSRAPFSRSSHPM : binds
